Reported %Inh values for a set of compounds
- Test system: BRAF
- Measurement Parameters: concentration: 1 μM,replicates: in singlicate; n = 1;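 also: KINOMEscan kinase panel screen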
Supply the numeric figure in %, leaving out any unit text.

Compound	%Inh [%]
COc1cc2nccc(Nc3ccc(Oc4ccccc4)cc3)c2cc1OC.Cl	0
CC(C)c1nc(-c2cccc(NS(=O)(=O)c3ccccc3)c2)c(-c2ccnc(Nc3ccc4c(c3)CN(C)CC4)n2)s1	99.9
COC(=O)c1cccc(NC(=O)NC2CCN(c3ccnc(NCc4ccc(F)cc4)n3)CC2)c1	2
CSc1nccc(-c2c(-c3ccc(F)cc3)ncn2CCCN2CCOCC2)n1.Cl	4
Cc1ccc(C(=O)Nc2ccc(Oc3ccc4nc(NC(=O)C5CC5)cn4c3)c(F)c2)c(=O)n1-c1ccccc1	57

State the recorded %Inh for this entry: "C[C@@H]1CNc2c(sc3ccc4nc(-c5ccc(O)cc5)ccc4c23)C(=O)N1"
0

Item under review: "CCCC(=O)Nc1n[nH]c2ncccc12" . Reported %Inh?
7

// returns reported %Inh for input N#Cc1cccc(C(=O)NC2CCN(c3ccnc(Nc4ccc(F)cc4)n3)C2)c1 (centres unmarked)
0

###

- Test system: MAPKAPK5
- Measurement Parameters: concentration: 1 μM,replicates: in singlicate; n = 1
Attribute Measured: %Inh
The reply must contain the numeric value and, after it, the unit.

Some solved cases for reference:
Compound	Measurement Target	%Inh
O=C(Nc1ccccc1)c1cccc(Oc2ccc3nccn3n2)c1	MAPKAPK5	4%
CS(=O)c1ccc(-c2coc3ccc(-c4n[nH]c(=O)o4)cc23)cc1 (stereo not drawn)	MAPKAPK5	11%

So what does the record say about %Inh for "O=C(Nc1ccc(Oc2ccc3nc(NC(=O)C4CC4)cn3n2)c(F)c1)c1cccn(-c2ccccc2)c1=O" ?
0%

# get_value(readout='%Inh', item= "COC(=O)c1cccc(NC(=O)NC2CCN(c3ccnc(NCc4ccc(F)cc4)n3)CC2)c1" )
0%

Name the recorded %Inh for "Cn1ccc2ncnc(Oc3ccc(NC(=O)Nc4cc(C(C)(C)C)on4)c(Cl)c3)c21" .
50%

Reported %Inh, compound "CC(=O)Nc1nc2cnc(Nc3cc(NC(=O)c4cccc(CC(C)(C)C#N)c4)ccc3C)nc2s1" : ____
14%

Data request, read-out %Inh, for "Cc1ccc(Nc2ccnc(Nc3ccc4c(c3)CS(=O)(=O)C4)n2)cc1O.Cl"
0%

Consider the compound shown here: N#Cc1cccc(C(=O)NC2CCN(c3ccnc(Nc4ccc(F)cc4)n3)C2)c1 (stereo not drawn) What is its recorded %Inh?
0%

Recorded %Inh for "C[C@@H]1CCN(C(=O)N2CCCC2)C[C@@H]1N(C)c1ncnc2[nH]ccc12" , please?
8%

###

- Tested on: CSNK1D
- Measurement Parameters: concentration: 1 μM,replicates: in singlicate; n = 1
Attribute Measured: %Inh

Reference set (5 entries):
Compound	%Inh
NC(=O)Nc1sc(-c2ccc(F)cc2)cc1C(N)=O	55%
c1ccc(Oc2ccc(Nc3ccnc4ccc(-c5ccccn5)cc34)cc2)cc1	14%
Cc1ccc(Nc2ccnc(Nc3ccc4c(c3)CS(=O)(=O)C4)n2)cc1O.Cl	3%
COC(=O)Nc1nc2cc(Oc3ccc(NC(=O)Nc4cc(C(F)(F)F)ccc4Cl)cc3)ccc2[nH]1.Cl	69%
N#Cc1cccc(C(=O)NC2CCN(c3ccnc(Nc4ccc(F)cc4)n3)C2)c1 (stereo not drawn)	17%

Now look at this one.
Checklist item: %Inh tested on CSNK1D, entry "O=C(Nc1ccccc1)c1cccc(Oc2ccc3nccn3n2)c1" , value?
0%

###

- Tested on: TYK2(JH2domain-pseudokinase)
- Measurement Parameters: concentration: 1 μM,replicates: in singlicate; n = 1
Attribute Measured: %Inh (%)
Reply with just the number (in %).

Known %Inh results, listed for orientation:
Smiles Text	Attribute Measured	Measured Number
COc1cccc(OC)c1C(=O)Nc1cccc(-c2nn3ccccc3c2-c2ccnc(Nc3cccc(F)c3)n2)c1	%Inh	0
OCCn1cc(-c2cnc3nnn(Cc4ccc5ncccc5c4)c3n2)cn1	%Inh	0

Given the entry "NC(=O)Nc1sc(-c2ccc(F)cc2)cc1C(N)=O" , report its measured %Inh.
100

###

- System: NEK11
- Measurement Parameters: concentration: 1 μM,replicates: in singlicate; n = 1
Attribute Measured: %Inh
The number alone won't do; follow it with the unit.

Example results:
Compound	Measurement Target	Result
Cc1ccc2c(-c3ccnc(Nc4ccc(C(F)(F)F)cc4)n3)cnn2n1	NEK11	0%
COc1cc(Nc2nccc(N3CCC(NC(=O)c4cccc(C#N)c4)C3)n2)cc(OC)c1OC (stereo not drawn)	NEK11	0%
Cl.Nc1n[nH]c2cc(-c3ccccn3)ccc12	NEK11	0%
CS(=O)(=O)c1cccc(CNc2nc(Nc3ccc4c(c3)[C@@H]3C[C@@H]4CNC3=O)ncc2C(F)(F)F)c1	NEK11	0%
CN1CCN(CCCNc2nccc(-c3c(-c4ccc(F)cc4)nn4cc(C(N)=O)ccc34)n2)CC1	NEK11	0%

Query: %Inh; subject: "O=C1NCCc2[nH]c(-c3ccncc3)cc21"
0%

Returns the measured %Inh for the input compound. Input: "Cn1ccc2ncnc(Oc3ccc(NC(=O)Nc4cc(C(C)(C)C)on4)c(Cl)c3)c21"
0%

# %Inh lookup, item COC(=O)c1cccc(NC(=O)NC2CCN(c3ccnc(Nc4cc(OC)c(OC)c(OC)c4)n3)C2)c1 (stereo not drawn)
0%

Can you share its %Inh? I mean this compound: "O=C(Nc1ccc(Oc2ccc3nc(NC(=O)C4CC4)cn3n2)c(F)c1)c1cccn(-c2ccccc2)c1=O"
0%

###

- Tested on: PAK3
- Measurement Parameters: concentration: 1 μM,replicates: in singlicate; n = 1
Attribute Measured: %Inh (%)
Write the value in % as a bare number.

Here are 8 compounds together with their reported answers.
Compound	%Inh (%)
CN1CCN(CCNc2nc3cc(Oc4ccc(NC(=O)Nc5cc(C(F)(F)F)ccc5F)cc4)ccc3[nH]2)CC1.Cl.Cl	6
C[C@@H](Oc1cc(-n2cnc3ccc(-c4ccncc4)cc32)sc1C(N)=O)c1ccccc1Cl	21
COc1cccc(CNC(=O)NC2CCN(c3ccnc(Nc4cc(OC)c(OC)c(OC)c4)n3)C2)c1 (stereo not shown)	11
CS(=O)(=O)c1cccc(CNc2nc(Nc3ccc4c(c3)[C@@H]3C[C@@H]4CNC3=O)ncc2C(F)(F)F)c1	0
FC(F)(F)c1cc(Br)cc(Nc2nccc(-c3cnn4ncccc34)n2)c1	27
COc1cccc(OC)c1C(=O)Nc1cccc(-c2nn3ccccc3c2-c2ccnc(Nc3cccc(F)c3)n2)c1	0
COc1ccc(Nc2nccc(N3CCC(NC(=O)c4cccc(C#N)c4)C3)n2)cc1 (stereo not shown)	24
C[C@@H](Oc1cc(-n2cnc3cc(-c4ccncc4)ccc32)sc1C(N)=O)c1ccccc1Cl	27

For "COc1cc2nccc(Nc3ccc(Oc4ccccc4)cc3)c2cc1OC.Cl" , what is its reported %Inh?
0

Please look up its %Inh: "Nc1nccc(-c2ccc3c(N)n[nH]c3c2)n1"
7

###

- System: MST1R
- Measurement Parameters: concentration: 1 μM,replicates: in singlicate; n = 1
Quick list: %Inh per entry.
Supply the numeric figure in %, leaving out any unit text.

Please review the following examples before continuing.
Compound	%Inh, %
CC(C)S(=O)(=O)N1CCN(Cc2ccc3c(c2)nc(NC(=O)c2ccsc2)n3C[C@H](O)c2ccccc2)CC1	36
O=C(Nc1cccc(C(F)(F)F)c1)c1cccc(Oc2ccc3nccn3n2)c1	3
N#Cc1cccc(C(=O)NC2CCN(c3ccnc(Nc4ccc(F)cc4)n3)C2)c1 (stereo not shown)	39

Please give the measured %Inh for this compound: "C[C@@H]1CCN(C(=O)N2CCCC2)C[C@@H]1N(C)c1ncnc2[nH]ccc12"
8

Param item = "C[C@@H]1CNc2c(sc3ccc4nc(-c5ccc(O)cc5)ccc4c23)C(=O)N1" ; retrieve measured %Inh.
23

Give the measured %Inh of CS(=O)c1ccc(-c2coc3ccc(-c4n[nH]c(=O)o4)cc23)cc1 (stereo not shown) .
0

Look up %Inh: "C[C@@H](Oc1cc(-n2cnc3cc(-c4cnn(C)c4)ccc32)sc1C(N)=O)c1ccccc1Cl"
64

Consider the compound shown here: "OCCn1cc(-c2cnc3nnn(Cc4ccc5ncccc5c4)c3n2)cn1" What is its recorded %Inh?
0

Param item = "CCOC(=O)N1CCC(n2cnc(-c3ccc(F)cc3)c2-c2ccnc(N)n2)CC1" ; retrieve measured %Inh.
0

So what does the record say about %Inh for "CCN1CCN(CCCC(=O)Nc2n[nH]c3nc(-c4ccc(O)cc4)c(Br)cc23)CC1" ?
17

###

- Test system: CAMKK1
- Measurement Parameters: concentration: 1 μM,replicates: in singlicate; n = 1
Attribute Measured: %Inh (%)
Dear colleague, please return just the value in %, with no unit written.

Examples from the recorded data:
Compound	%Inh (%)
C[C@@H]1CCN(C(=O)N2CCCC2)C[C@@H]1N(C)c1ncnc2[nH]ccc12	15
CN(c1ccccc1CNc1nc(Nc2ccc3c(c2)CC(=O)N3)ncc1C(F)(F)F)S(C)(=O)=O	58
CN(c1ccc2c(c1)nc(NCc1ccc(F)cc1)n2C)c1ccnc(Nc2ccc(CS(C)(=O)=O)cc2)n1.Cl [GW813244]	0

May I ask what %Inh has been recorded for COc1cc2c(Nc3ccc(NC(=O)c4ccccc4)cc3)ncnc2cc1OCCCN1CCOCC1 [GSK301329] ?
0
